# System: DU-145 prostate
# Assay text: NCI tumour cell line growth inhibition, 48 h
Reported metric: TGI

Worked examples, 6 compounds total:
- Compound: "CC1SC2(CCCCC2)N(NC(=O)c2[nH]c3ccc(Br)cc3c2-c2ccccc2)C1=O (stereo not given)"
  TGI: "> 100 µM"
- Compound: "CC1(C)COC2=C(C1)C(=O)c1ccccc1C2=O"
  TGI: "3.07 µM"
- Compound: "CC(=O)OC1=CC2(OC(C)=O)CC(C)(C)C1C1C(=O)C=CC(=O)C12 (stereo not given)"
  TGI: "> 100 µM"
- Compound: "CC1(C)Cc2c(Br)c(Br)c(Br)c(OCC(O)CN3CCN(c4ccccn4)CC3)c2O1 (stereo not given)"
  TGI: "30.6 µM"
- Compound: "COC1C(N(C)C)=C(c2ccccc2)C(=O)N2CCc3ccccc3C12 (stereo not given)"
  TGI: "> 100 µM"
- Compound: "COc1ccccc1C(=O)NCC1CCCN2CCCCC12 (stereo not given)"
  TGI: "> 100 µM"

What does the record list as TGI for c1ccc2c(c1)cc1n2CCc2c-1[nH]c1ccccc21 ?
> 10 µM

Query C(#CP(c1ccccc1)c1ccccc1)P(C#CP(c1ccccc1)c1ccccc1)c1ccccc1 next
> 100 µM

Query CCN1CCC(CNC(=O)c2ccc(N)cc2)N1CC (stereo not given) next
> 100 µM

Query Cc1nc2sc(C(=O)c3ccc(Cl)cc3)c(N)c2c(-c2ccccc2Cl)c1C(=O)Nc1ccccc1 next
61 µM

Query CCN1C(=NCCO)NS(=O)(=O)c2ccccc21 next
> 100 µM

Query C[C@@H](CO)NC(=O)c1cc(-c2ccc(Cl)cc2)nn(-c2cnn(C)c2)c1=O next
> 100 µM

Query Cc1ccc(C2NC(=O)c3ccccc3N2)c(C)c1 (stereo not given) next
> 100 µM

Query CN(C)c1ccc(/C=N/S(=O)(=O)c2ccc(-n3c(-c4ccccc4)nc4c(Br)cc(Br)cc4c3=O)cc2)cc1 next
> 90.2 µM

Query Cc1cccc(CC(Cc2ccc(C)cc2C(=O)O)C(=O)O)c1 (stereo not given) next
> 100 µM

Query CC(=O)/C=C/c1ccc(OCc2ccc(Cl)cc2)cc1 next
> 1000 µM

Query Cc1cccc(N2C(=O)C3c4[nH]c5ccc(C)cc5c4C4CCC(C(C)(C)C)CC4C3C2=O)c1 (stereo not given) next
38.7 µM

Query Cc1ccc(-n2nnnc2-c2cnc(N3CCOCC3)nc2-c2cccc(C(F)(F)F)c2)cc1 next
16.9 µM

Query O=C1c2cccnc2C(=O)c2c1c(C(=O)OCCCN1CCCCC1)c1ccccn21 next
1.29 µM

Query COC(=O)C1OC(O[C@H]2CC[C@]3(C)[C@H]4CC=C5[C@@H]6CC(C)(C)CC[C@]6(C(=O)OC6OCC(O)C(O)C6OC6OC(C)C(OC7OCC(O)C(O)C7O)C(OC7OCC(O)(CO)C7O)C6O)[C@H](O)C[C@@]5(C)[C@]4(C)CC[C@H]3C2(C)C)C(O)C(O)C1O (stereo not given in full) next
20.9 µM

Query NC(CSSCC(N)C(=O)O)C(=O)O (stereo not given) next
> 100 µM

Query OC1(c2ccc(Cl)cc2)c2ccccc2-c2nc3ccccc3n21 (stereo not given) next
> 100 µM

----------
# reported TGI; entries follow
# Tested on: OVCAR-8 ovarian
# Assay text: NCI tumour cell line growth inhibition, 48 h

- Smiles entry: "Cc1ccc(S(=O)(=O)N/N=C/C(C)C)cc1"
  TGI: "> 100 µM"
- Smiles entry: "CN(C)c1cccc(F)c1C(=O)NC(=O)Nc1ccc(Cl)cc1"
  TGI: "> 86.4 µM"

Turning now to a further record.
What does the record list as TGI for O=C(Cn1c(C(=O)c2ccccc2)nc2ccccc21)c1ccccc1 ?
> 100 µM

----------
# System: SNB-19 CNS
# Assay text: NCI tumour cell line growth inhibition, 48 h
Reported metric: TGI

Worked examples, 4 molecules total:
- Molecule: "COC(=O)C1(SC)C2CCC3C2CCC31 (stereo unspecified)"
  TGI: "> 100 µM"
- Molecule: "CCOC(=O)C1(C#N)CC1"
  TGI: "> 100 µM"
- Molecule: "COc1ccccc1C(=O)NCC1CCCN2CCCCC12 (stereo unspecified)"
  TGI: "> 100 µM"
- Molecule: "COc1cnc2c(c1)C(=O)c1c-2n(CCCN2CCC(O)CC2)c(=O)c2cc(Cl)ccc12"
  TGI: "3.46 µM"

What does the record list as TGI for O=c1[nH]c(=O)n(COCc2ccccc2)cc1Nc1ccc(Br)cc1 ?
> 100 µM

Query Cc1cccc(N2C(=O)C3c4[nH]c5ccc(C)cc5c4C4CCC(C(C)(C)C)CC4C3C2=O)c1 (stereo unspecified) next
> 100 µM

Query N#CC1=C(O)NC(O)=C(C#N)C1c1ccc(C2C(C#N)=C(O)NC(O)=C2C#N)cc1 next
> 100 µM

Query O=C(O)[C@H](CCC[C@H]1C(=O)O[C@H](c2ccccc2)[C@H](c2ccccc2)N1C(=O)OCc1ccccc1)N[C@@H](c1ccccc1)[C@H](O)c1ccccc1 next
61.3 µM

Query c1ccc2c(c1)cc1n2CCc2c-1[nH]c1ccccc21 next
> 10 µM

Query COc1cc2ccnc3c(=C(SC)SC)c(=O)c(c1OC)c23 next
> 100 µM

Query O=C(O)/C=C/c1c[nH]c(=O)[nH]c1=O next
> 500 µM

----------
# reported TGI; entries follow
# Tested on: SF-295 CNS
# Assay text: NCI tumour cell line growth inhibition, 48 h

Worked examples, 9 molecules total:
- Molecule: "O=c1c2cc3c(cc2c2cccc4c2n1CCC4)OCO3"
  Tested system: "SF-295 CNS"
  TGI: "> 100 µM"
- Molecule: "Cc1cccc(CC(Cc2ccc(C)cc2C(=O)O)C(=O)O)c1 (stereo not given)"
  Tested system: "SF-295 CNS"
  TGI: "> 100 µM"
- Molecule: "O=C(NCCCl)SCCO"
  Tested system: "SF-295 CNS"
  TGI: "> 100 µM"
- Molecule: "COc1cc(C)c2sc3ccccc3c(=O)c2c1NCCN(C)C"
  Tested system: "SF-295 CNS"
  TGI: "19.5 µM"
- Molecule: "NC(CSSCC(N)C(=O)O)C(=O)O (stereo not given)"
  Tested system: "SF-295 CNS"
  TGI: "> 100 µM"
- Molecule: "CC(=O)OC1[C@H](OC(C)=O)C2=C(C)[C@@H](OC(C)=O)C[C@@]2(C(C)(C)O)[C@@H](OC(C)=O)[C@H]2[C@@]1(C)[C@@H](OC(C)=O)CC(OC(C)=O)[C@]21CO1 (stereo not given in full)"
  Tested system: "SF-295 CNS"
  TGI: "> 100 µM"
- Molecule: "C/C(=N\\NC(=S)N1CCCCCC1)c1cccc2cccnc12"
  Tested system: "SF-295 CNS"
  TGI: "> 21 µM"
- Molecule: "N#CC(C#N)=C/C=C(\\Sc1ccc(F)cc1Cl)c1ccc(Cl)cc1"
  Tested system: "SF-295 CNS"
  TGI: "6.79 µM"
- Molecule: "CCc1c(-c2ccc(OC)cc2)oc(OC)c(C)c1=O"
  Tested system: "SF-295 CNS"
  TGI: "> 100 µM"

What does the record list as TGI for c1ccc2c(c1)cc1n2CCc2c-1[nH]c1ccccc21 ?
> 10 µM

----------
# Tested on: UO-31 renal
# Assay text: NCI tumour cell line growth inhibition, 48 h
Reported metric: TGI

- Compound: "CC(C)N(C(=O)C12C3C4C1C1C2C3C41C(N)=O)C(C)C (stereo unspecified)"
  TGI: "> 100 µM"

Request: TGI, test system UO-31 renal, entry CC(=O)c1ccc(NC(=O)COC(=O)c2cccc3c(=O)c4ccccc4[nH]c23)cc1
> 100 µM

Query COc1ccc(NCC(=O)Nn2c(-c3ccccc3)nc3ccccc3c2=O)cc1 next
> 100 µM

----------
# System: SK-MEL-28 melanoma
# Assay text: NCI tumour cell line growth inhibition, 48 h
# reported GI50; entries follow

Worked examples, 2 compounds total:
- Compound: "O=C1N(Cc2ccccc2Cl)c2ccccc2C12NN=C(c1cccc(Cl)c1)S2 (stereo not drawn)"
  GI50: "1.86 µM"
- Compound: "CCSC[C@@H]1C[C@](O)(c2ccc(F)cc2)[C@@H](c2ccc(F)cc2)O1"
  GI50: "18.3 µM"

What does the record list as GI50 for CC(C)(C)OC(=O)NCc1cccc(N=C=S)c1 ?
16.9 µM

----------
# reported GI50; entries follow
# Tested on: DU-145 prostate
# Assay text: NCI tumour cell line growth inhibition, 48 h

Worked examples, 2 compounds total:
- Smiles entry: "O=C1/C(=C/c2ccc(O)cc2)COc2ccc(O)c(O)c21"
  Tested system: "DU-145 prostate"
  GI50: "2.19 µM"
- Smiles entry: "CCCCNc1ccc(Nc2ccccc2)cc1"
  Tested system: "DU-145 prostate"
  GI50: "7.87 µM"

What does the record list as GI50 for Cn1cc(C2=C(Nc3ccccc3)C(=O)NC2=O)c2ccccc21 ?
> 25 µM

Query O=C1CC/C(=C/COc2cc(=O)oc3ccccc23)O1 next
4.32 µM

Query Nc1nc(N)c2nc3c(nc2n1)CCCCCCCCCC3 next
2.78 µM
